assay: Counterscreen qHTS for Inhibitors of Tau Fibril Formation, Fluorescence Polarization; conditions: tau K18 P301L (four-repeat tau fragment) Alexa594 fluorescence, heparin fibrillization; series mostly up to 57.7 µM; also: nearly all actives have a fitted effect of over 55% in size; also: potency is read from the fitted curve at half-maximal effect; tags tell the direction and shape of the fitted curve or compound fluorescence and quenching
The campaign covered roughly 280,000 compounds. About 2,600 (0.93%) were called active. About 8% were inconclusive and are not listed. Many of the other results were omitted from the sample, so actives are more common in it than they were.
Measured Quantity: Potency

Worked cases, Potency given:
Sample CN(c1ccc(OCC(=O)OCC(=O)Nc2cccc([N+](=O)[O-])c2)cc1)S(=O)(=O)c1ccc(F)cc1 ; Potency observed: 10 µM [quencher] (active)

Sample COCCNc1ccnc(-c2cccc(NS(C)(=O)=O)c2)n1 ; Potency observed: inactive

Sample Cc1ccccc1CNC(=O)c1ccc(NC(=O)N2CCCCc3ccccc32)cc1 ; Potency observed: inactive

Sample O=C(NCCc1c[nH]c2ccccc12)C(=O)NCC1CCCO1 (configuration not stated) ; Potency observed: inactive

Sample O=C(Nc1ccncc1)c1cc2ccccc2o1 ; Potency observed: inactive

Sample CCOc1cc(CNC(=O)c2sc3ncnc(N(C)C4CCCCC4)c3c2C)ccc1OC ; Potency observed: inactive

Next:
Sample COc1ccc(Nc2ncnc3sc(-c4ccccc4)cc23)c(OC)c1 ; Potency observed: 14.1 µM [quencher] (active)

Sample COc1ccc2[nH]cc(CCNc3nc(-c4cccc(NS(C)(=O)=O)c4)nc4ccccc34)c2c1 ; Potency observed: 28.2 µM [quencher] (active)

Sample COc1ccc2[nH]cc(CCNc3ncnc4ccc(-c5ccccc5CN(C)C)cc34)c2c1 ; Potency observed: inactive

Sample Cc1nc(C)c(-c2csc(NCCc3ccccc3)n2)s1 ; Potency observed: inactive

Sample Cc1nc(NC(=O)CN(C)S(=O)(=O)c2ccc(Cl)cc2)sc1C ; Potency observed: inactive

Sample O=C(NNc1c2ccccc2nc2ccccc12)c1cc2ccccc2cc1O ; Potency observed: 4.47 µM [quencher] (active)

Sample COc1cccc(CC(=O)Nc2ccc(-c3csc(C)n3)cc2)c1 ; Potency observed: inactive

Sample COc1ccc(-c2csc(Nc3ccc(O)cc3)n2)cc1 ; Potency observed: 11.2 µM [quencher] (active)

Sample COc1ccc(-c2csc(NC(=O)COC(=O)c3ccc(Br)o3)n2)cc1 ; Potency observed: inactive

Sample Cc1ccc(CSc2nc3cccnc3n2Cc2ccc(C(=O)NC3CC3)cc2)cc1 ; Potency observed: inactive

Sample N#C/C(=C/c1ccc(-c2ccccc2[N+](=O)[O-])o1)C(=O)NCCN1CCCCC1 ; Potency observed: inactive

Sample Cc1ccc(C)c2sc(NC(=O)c3ccc(S(=O)(=O)N4CCCC4)cc3)nc12 ; Potency observed: inactive

Sample CN1CCN(c2ccc(S(=O)(=O)Nc3ccccc3)cc2[N+](=O)[O-])CC1 ; Potency observed: inactive

Sample CCOC(=O)c1csc(NC(=O)Nc2cccc(OC)c2)n1 ; Potency observed: inactive

Sample Cc1cccc(-n2ncc(C(=O)N3CCN(c4ccc(Cl)cc4)CC3)c2C2CCN(C(=O)OC(C)(C)C)CC2)c1 ; Potency observed: inactive
